# TARGET UNDER TEST: UniProt Q9NR20
# Sequence (Q9NR20 whole entry): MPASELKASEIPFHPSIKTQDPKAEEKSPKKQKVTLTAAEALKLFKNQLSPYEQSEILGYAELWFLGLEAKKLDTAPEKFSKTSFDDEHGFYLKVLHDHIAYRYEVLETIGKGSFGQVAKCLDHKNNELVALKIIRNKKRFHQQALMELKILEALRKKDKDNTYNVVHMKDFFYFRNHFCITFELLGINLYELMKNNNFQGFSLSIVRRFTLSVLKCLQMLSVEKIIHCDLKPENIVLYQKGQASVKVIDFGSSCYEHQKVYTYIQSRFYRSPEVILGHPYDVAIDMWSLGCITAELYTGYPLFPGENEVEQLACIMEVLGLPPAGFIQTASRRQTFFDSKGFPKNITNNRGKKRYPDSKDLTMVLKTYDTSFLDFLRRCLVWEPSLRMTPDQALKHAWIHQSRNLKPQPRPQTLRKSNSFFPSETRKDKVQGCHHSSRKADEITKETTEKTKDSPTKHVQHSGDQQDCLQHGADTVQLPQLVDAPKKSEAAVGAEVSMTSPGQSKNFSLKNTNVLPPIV
Quick rule for you: IC50 under 2000 nM gets rule met, anything else gets rule not met.

Prompt: State whether 2000 nM exceeds IC50 recorded for `Cn1ncc2cc(/C=C3\N=C(NC4CCCCCC4)NC3=O)ccc21` .
Response: rule not met

Prompt: State whether 2000 nM exceeds IC50 recorded for `O=C1NC(NC2CCCCCC2)=N/C1=C\c1ccc2[nH]cnc2c1` .
Response: rule met

Prompt: State whether 2000 nM exceeds IC50 recorded for `Cn1ccc2cc(/C=C3\N=C(NC45CC6CC(CC(C6)C4)C5)NC3=O)ccc21` .
Response: rule not met

Prompt: State whether 2000 nM exceeds IC50 recorded for `O=C1NC(NC23CC4(F)CC(F)(CC(F)(C4)C2)C3)=N/C1=C\c1ccc2ncsc2c1` .
Response: rule met

Prompt: State whether 2000 nM exceeds IC50 recorded for `CC[C@@H](CO)NC1=N/C(=C\c2ccc3ncsc3c2)C(=O)N1` .
Response: rule not met

Prompt: State whether 2000 nM exceeds IC50 recorded for O=C1NC(NC2C3CC4CC(C3)CC2C4)=N/C1=C\c1ccc2ncsc2c1 (stereo not given) .
Response: rule met

Prompt: State whether 2000 nM exceeds IC50 recorded for `O=C1NC(NCCc2ccccn2)=N/C1=C\c1ccc2ncsc2c1` .
Response: rule not met

Prompt: State whether 2000 nM exceeds IC50 recorded for `CC(C)C[C@@H](CO)NC1=N/C(=C\c2ccc3ncsc3c2)C(=O)N1` .
Response: rule not met

Prompt: State whether 2000 nM exceeds IC50 recorded for `O=C1NC(NC23CC4CC(CC(C4)C2)C3)=N/C1=C\c1ccc2[nH]cnc2c1` .
Response: rule met

Prompt: State whether 2000 nM exceeds IC50 recorded for `CC(C)C[C@H](CF)NC1=N/C(=C\c2ccc3ncsc3c2)C(=O)N1` .
Response: rule met

Prompt: State whether 2000 nM exceeds IC50 recorded for O=C1NC(N[C@@H]2CCC[C@@H]2O)=N/C1=C\c1ccc2ncsc2c1 (racemic) .
Response: rule met

Prompt: State whether 2000 nM exceeds IC50 recorded for `CO[C@@H]1CCCC[C@H]1NC1=N/C(=C\c2ccc3ncsc3c2)C(=O)N1` .
Response: rule met

Prompt: State whether 2000 nM exceeds IC50 recorded for CN1CCC(NC2=N/C(=C\c3ccc4ncsc4c3)C(=O)N2)C1=O (racemic) .
Response: rule not met

Prompt: State whether 2000 nM exceeds IC50 recorded for O=C1NC(NC(CF)c2ccccc2)=N/C1=C\c1ccc2ncsc2c1 (racemic) .
Response: rule met

Prompt: State whether 2000 nM exceeds IC50 recorded for `O=C1NC(NCC23CC4CC(CC(C4)C2)C3)=N/C1=C\c1ccc2ncsc2c1` .
Response: rule not met

Prompt: State whether 2000 nM exceeds IC50 recorded for O=C1NC(N[C@@H]2CCCC[C@H](O)C2)=N/C1=C\c1ccc2ncsc2c1 (racemic) .
Response: rule met

Prompt: State whether 2000 nM exceeds IC50 recorded for CNCC(NC1=N/C(=C\c2ccc3ncsc3c2)C(=O)N1)c1ccccc1 (racemic) .
Response: rule met

Prompt: State whether 2000 nM exceeds IC50 recorded for CN(C)CC(NC1=N/C(=C\c2ccc3ncsc3c2)C(=O)N1)c1ccccc1 (racemic) .
Response: rule not met

Prompt: State whether 2000 nM exceeds IC50 recorded for O=C1NC(NCC(O)Cc2ccccc2)=N/C1=C\c1ccc2ncsc2c1 (racemic) .
Response: rule met

Prompt: State whether 2000 nM exceeds IC50 recorded for `O=C1CC[C@H](NC2=N/C(=C\c3ccc4ncsc4c3)C(=O)N2)CN1` .
Response: rule not met
